Target: E3 ubiquitin-protein ligase XIAP (Homo sapiens) (UniProt P98170)
Sequence (P98170 whole entry, looked up): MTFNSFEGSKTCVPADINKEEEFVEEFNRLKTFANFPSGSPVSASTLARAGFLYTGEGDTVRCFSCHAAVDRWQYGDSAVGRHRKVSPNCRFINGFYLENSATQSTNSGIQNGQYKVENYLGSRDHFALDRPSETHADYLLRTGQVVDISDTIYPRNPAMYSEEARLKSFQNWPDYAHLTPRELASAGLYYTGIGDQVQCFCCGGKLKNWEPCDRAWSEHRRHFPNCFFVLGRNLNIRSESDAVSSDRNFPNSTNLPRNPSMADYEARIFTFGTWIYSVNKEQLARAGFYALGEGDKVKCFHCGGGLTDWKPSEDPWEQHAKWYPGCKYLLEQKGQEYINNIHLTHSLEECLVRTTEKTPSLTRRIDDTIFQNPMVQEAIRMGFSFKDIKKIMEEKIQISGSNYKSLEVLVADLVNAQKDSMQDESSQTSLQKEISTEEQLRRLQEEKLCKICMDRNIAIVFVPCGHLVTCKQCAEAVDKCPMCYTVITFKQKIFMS
Assay: XIAP binders, primary screen, biophysical, small-molecule microarray, fluorescence 635 nm (AID 1181);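 further: score merges 667 nm emission and signal to noise over triplicate slides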
Settings: small-molecule microarray binding, higher = more signal
Is composite z-score at least 0.03? Then True. If not, False.

Please check the record C=CCN1C(=O)[C@@]2(O[C@@H](CCn3cc([C@H](O)c4ccccc4)nn3)[C@H]([Si](C)(C)c3ccc(OC)cc3)[C@H]2C)c2cc(N3CCC3=O)ccc21 and state if its composite z-score is at or above 0.03.
False

Please check the record C=CCC(OC(C)=O)[C@@H]1[C@@H](N(Cc2cccc3ccccc23)C(=O)Cc2ccc(OC)cc2)c2cc(OCCCO)ccc2N1C(=O)c1ccc2ccccc2n1 (stereo partly specified) and state if its composite z-score is at or above 0.03.
True

Please check the record C=CCOC(=O)[C@H]1[C@@H]2C(=O)O[C@@H](c3ccccc3)[C@@H](c3ccccc3)N2[C@@H](c2ccc(OCCOC(=O)[C@@H]3C[C@@H]4C(=O)N[C@@H](CCCCNC(C)=O)C(=O)N4[C@@H]3c3ccc(O)cc3)cc2)[C@]12C(=O)Nc1ccc(I)cc12 and state if its composite z-score is at or above 0.03.
False

###

System: Chordin-like protein 2 (CHRDL2)
Assay: CHRDL2 small-molecule binders, primary screen, biochemical, small-molecule microarray, 635 nm fluorescence (AID 1126);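 further: printed compound slides probed with Chrdl2 protein at 4 µg/mL for 1 h at 4 C; score merges 667 nm emission intensity with signal to noise over three replicate slides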
Conditions: small-molecule microarray binding, fluorescence 635 nm; higher = more signal
READOUT: composite z-score

Check out these entries, answers already filled in.
{"columns": ["COMPOUND", "TEST TARGET", "ASSAY RESULT"],
 "data": [
  ["C=CCOC(=O)[C@H]1[C@@H]2C(=O)O[C@@H](c3ccccc3)[C@@H](c3ccccc3)N2[C@@H](c2ccc(OCCOC(=O)[C@H]3C[C@H]4C(=O)N[C@@H](CCCCNC(C)=O)C(=O)N4[C@H]3c3ccc(O)cc3)cc2)[C@]12C(=O)Nc1ccccc12", "Chordin-like protein 2 (CHRDL2)", 0.998],
  ["[N-]=[N+]=NCc1ccccc1[C@H]1OC(c2ccc(OCCCO)cc2)=N[C@@]1(CCS(=O)(=O)c1ccccc1)C(=O)N1CCCCC1", "Chordin-like protein 2 (CHRDL2)", -0.565]
]}

Quick one: composite z-score for CC(C)(C)N1CC=CC23O[C@@H]4C=CCOC(=O)[C@@H]4[C@H]2C(=O)N(CCCCCCO)[C@@H]3C1=O (stereo partly drawn) ?
-0.677

Quick one: composite z-score for CCOC(=O)C[C@H]1[C@H](OC(=O)c2ccccc2-c2ccccc2)[C@@H](NC(=O)C2CCCCC2)c2cc(OCCCO)ccc2N1C(=O)Cc1ccc(OC)cc1 ?
-0.292

Quick one: composite z-score for COCC1=C2[C@@H](CCc3ccccc3)OB(O)C[C@@H]2[C@@H]2C(=O)C=CC(=O)[C@@H]2C1 ?
0.0197

Quick one: composite z-score for CC(C)C[C@@H]1NC(=O)[C@@H]2C[C@H](C(=O)NCCCCN(C)C)[C@H](c3cccc(OCCO)c3)N2C1=O ?
0.175

Quick one: composite z-score for COCCOC(=O)N1C(=O)[C@@]2(c3cc(C#CC4=CCCCC4)ccc31)[C@H](c1ccc(OCCO)cc1)N1[C@H](c3ccccc3)[C@H](c3ccccc3)OC(=O)[C@H]1[C@@H]2C(=O)N1CCN(c2ncccn2)CC1 ?
0.48

###

Assay: P. aeruginosa biofilm formation inhibitors, primary screen, PAO1 strain, BacTiter-Glo luminescence, LB-PBS (AID 1144)
Conditions: 12 h, higher = more signal
z-score for assorted compounds
Please reply with the number alone, leaving off any unit.

{"columns": ["COMPOUND", "z-score"],
 "data": [
  ["[N-]=[N+]=NCc1ccccc1C[C@]1(C(N)=O)N=C(c2ccc(OCCCO)cc2)O[C@H]1c1ccccc1", -1.02]
]}

Quick one: z-score for CCOc1cc(C(O)C2C=CC3C(=O)N(C)C(=O)C3N2Nc2ccccc2)ccc1O (stereo not drawn) ?
-0.947

Quick one: z-score for CC1=C[C@@]2(CO)C(=O)[C@]3(CO3)[C@@H]1[C@H]1[C@]2(C)C=C(CO)C(=O)[C@]12CO2 ?
-0.108

Quick one: z-score for COC(=O)[C@@]1(Cc2ccc(F)cc2)[C@H]2c3cc(C(=O)N(C)C)n(CCc4ccc(O)c(OC)c4)c3C[C@H]2CN1C(=O)c1ccccc1 ?
-0.0301

Quick one: z-score for COC(=O)[C@@]1(Cc2ccccc2N=[N+]=[N-])N=C(c2ccc(OCCCO)cc2)O[C@H]1c1ccccc1N=[N+]=[N-] ?
-0.455

Quick one: z-score for CC(C)N1CC=CC23O[C@@H]4C=CCOC(=O)[C@@H]4[C@H]2C(=O)N(CCCO)[C@@H]3C1=O (stereo partly drawn) ?
-2.47

Quick one: z-score for CCCCCCc1nc(-c2cc(C)c(OC)c(C)c2)c(C)c2c1[Si](C(C)C)(C(C)C)OC2 ?
-0.892

Quick one: z-score for NCCCCCCNC(=O)[C@@H]1C[C@@H]2C(=O)N[C@@H](CCCCN)C(=O)N2[C@@H]1c1cccc(OCCO)c1 ?
-0.537

###

composite z-score for assorted molecules
Target: Calmodulin-1 (Homo sapiens) (UniProt P0DP23)
Test: calcium-bound CALM1 binders on microarrays, profiling panel, artefact control for SMM control-protein annotation, biochemical, small-molecule microarray, Cy5-labelled CALM1, plus calcium (AID 1112);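 further: score merges spot fluorescence with signal to noise from triplicate slides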
Details: Cy5-CALM1 binding fluorescence, higher = more signal

{"columns": ["MOLECULE", "composite z-score"],
 "data": [
  ["C=C(/C(=C/C[C@@H](OC(C)=O)c1cccc(OCCO)c1)c1cc(C(=O)OC)ccc1OC)C(C)C", -0.563]
]}

Quick one: composite z-score for COC(=O)[C@@]1(Cc2ccccc2)[C@H]2c3cc(C(=O)N(C)C)n(CCN4CNCC4=O)c3C[C@H]2CN1C(=O)c1ccccc1 ?
-2.29

Quick one: composite z-score for COC(=O)[C@@]1(Cc2ccc(OC)cc2)[C@H]2c3cc(C(=O)N(C)C)n(CCO)c3C[C@H]2CN1C(=O)c1ccccc1 ?
1.1

Quick one: composite z-score for CC(C)C[C@@H]1NC(=O)[C@@H]2C[C@H](C(=O)NCCCCN(C)C)[C@H](c3cccc(OCCO)c3)N2C1=O ?
-0.0276

Quick one: composite z-score for CN1C(=O)C2C=CC(C(O)c3cccc4ccccc34)N(N3CCCCC3)C2C1=O (configuration not stated) ?
1.02

###

z-score for assorted molecules
Assay: modulators of HCV replicon luciferase signal, primary screen, HCV replication inhibitor project, Huh7 cells, luciferase reporter (AID 1109);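 further: huh7 hepatoma cells harbouring a luciferase neomycin HCV replicon reporter; luciferase luminescence as measure of HCV replicon replication; test concentration not given here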
Settings: 48 h, higher = more signal
Please reply with the number alone, leaving off any unit.

{"columns": ["MOLECULE", "z-score"],
 "data": [
  ["COc1ccc([Si](C)(C)[C@@H]2[C@@H](CC(=O)N(CCO)Cc3ccccc3)O[C@]3(C(=O)N(Cc4cccc(N5C(=O)c6cccc7cccc5c67)c4)c4ccccc43)[C@H]2C)cc1", -3.94],
  ["COCCCNC(=O)[C@@]1(Cc2ccccc2CN=[N+]=[N-])N=C(c2ccc(OCCCO)cc2)O[C@H]1c1ccccc1", -2.84],
  ["O=C1OCC=C[C@H]2OC34C=CCN(c5ccc(Cl)cc5)C(=O)[C@H]3N(CCO)C(=O)[C@@H]4[C@@H]12 (stereo partly drawn)", -0.515],
  ["COC(=O)[C@@]1(Cc2ccccc2)[C@@H]2C(=CC(=O)[C@H]2CC(=O)C(=O)N(C)C)CN1C(=O)c1ccccc1", -2.36],
  ["COc1ccc(-c2nc(-c3ccccc3)c3c(c2C)CO[Si]3(C(C)C)C(C)C)cn1", -1.05],
  ["CN(C)C(=O)C1N=C(c2ccc(OCCCO)cc2)N(c2ccccc2)O1 (stereo not drawn)", -0.842],
  ["CCOC(=O)C[C@H]1[C@H](OC(=O)Cc2ccc3c(c2)OCO3)[C@@H](NC(=O)CC(C)C)c2cc(OCCCO)ccc2N1C(=O)Cc1ccc(OC)cc1", -0.948]
]}

Quick one: z-score for COc1cccc(/C=C/C=O)c1 ?
-0.56

###

Target: Fibroblast growth factor 2 (Homo sapiens) (UniProt P09038)
Sequence (P09038 whole entry, looked up): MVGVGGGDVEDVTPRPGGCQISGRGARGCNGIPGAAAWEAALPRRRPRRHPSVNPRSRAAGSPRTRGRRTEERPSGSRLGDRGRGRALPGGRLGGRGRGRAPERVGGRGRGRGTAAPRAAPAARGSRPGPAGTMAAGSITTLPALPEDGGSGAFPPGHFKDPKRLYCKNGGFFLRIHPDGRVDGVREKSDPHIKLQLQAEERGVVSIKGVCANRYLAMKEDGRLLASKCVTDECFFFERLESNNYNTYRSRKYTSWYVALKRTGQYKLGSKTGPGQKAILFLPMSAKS
Assay: FGF2 binders on small-molecule microarrays, primary screen, biochemical, small-molecule microarray, 635/667 nm fluorescence (AID 1133)
Details: small-molecule microarray binding, FGF2, fluorescence 635/667; higher = more signal
Is composite z-score at least 1? Then yes. If not, no.

{"columns": ["MOLECULE", "CLASSIFICATION"],
 "data": [
  ["[N-]=[N+]=NCc1ccccc1[C@@H]1OC(c2ccc(OCCCO)cc2)=N[C@]1(CCS(=O)(=O)c1ccccc1)C(=O)NCC(O)CO (some centres not stated)", "yes"],
  ["COC1OC[C@]2(C)[C@H]3C4=C(CN2C(=O)OC(C)(C)C)[C@H](C)C(CO)C(CO)C4CC[C@@H]13 (some centres not stated)", "no"],
  ["C=CCOC(=O)[C@H]1[C@@H]2C(=O)O[C@@H](c3ccccc3)[C@@H](c3ccccc3)N2[C@@H](c2ccc(OCCOC(=O)[C@@H]3C[C@@H]4C(=O)N5CCC[C@H]5C(=O)N4[C@@H]3c3ccc(O)cc3)cc2)[C@]12C(=O)Nc1ccc(I)cc12", "yes"],
  ["CCOC(=O)C[C@H]1[C@H](OC(=O)c2cc3ccccc3oc2=O)[C@@H](NC(=O)Cc2ccc(OC)cc2)c2cc(OCCCO)ccc2N1C(=O)c1ccc2ccccc2n1", "no"],
  ["CCOC(=O)C[C@H]1[C@H](OC(=O)c2ccc(C(=O)c3ccccc3)cc2)[C@@H](NC(=O)Cc2ccc(OC)cc2)c2cc(OCCCO)ccc2N1C(=O)c1ccccc1", "no"]
]}

Please check the record C=CCC(OC(C)=O)[C@@H]1[C@@H](N(Cc2cccc3ccccc23)C(=O)c2cccc3ccccc23)c2cc(OCCCO)ccc2N1C(=O)c1ccc(-c2ccccc2)cc1 (some centres not stated) and state if its composite z-score is at or above 1.
no

Please check the record COCCOC(=O)N1C(=O)[C@@]2(c3cc(C#CC4=CCCCC4)ccc31)[C@H](C(=O)N1CCCCCCC1)[C@H]1C(=O)O[C@H](c3ccccc3)[C@H](c3ccccc3)N1[C@@H]2c1ccc(O)cc1 and state if its composite z-score is at or above 1.
no
